- assayed system: Integrin alpha-V/beta-3 (Homo sapiens, UniProt P05106+P06756)
- Sequence (P05106 27-788 limits assumed): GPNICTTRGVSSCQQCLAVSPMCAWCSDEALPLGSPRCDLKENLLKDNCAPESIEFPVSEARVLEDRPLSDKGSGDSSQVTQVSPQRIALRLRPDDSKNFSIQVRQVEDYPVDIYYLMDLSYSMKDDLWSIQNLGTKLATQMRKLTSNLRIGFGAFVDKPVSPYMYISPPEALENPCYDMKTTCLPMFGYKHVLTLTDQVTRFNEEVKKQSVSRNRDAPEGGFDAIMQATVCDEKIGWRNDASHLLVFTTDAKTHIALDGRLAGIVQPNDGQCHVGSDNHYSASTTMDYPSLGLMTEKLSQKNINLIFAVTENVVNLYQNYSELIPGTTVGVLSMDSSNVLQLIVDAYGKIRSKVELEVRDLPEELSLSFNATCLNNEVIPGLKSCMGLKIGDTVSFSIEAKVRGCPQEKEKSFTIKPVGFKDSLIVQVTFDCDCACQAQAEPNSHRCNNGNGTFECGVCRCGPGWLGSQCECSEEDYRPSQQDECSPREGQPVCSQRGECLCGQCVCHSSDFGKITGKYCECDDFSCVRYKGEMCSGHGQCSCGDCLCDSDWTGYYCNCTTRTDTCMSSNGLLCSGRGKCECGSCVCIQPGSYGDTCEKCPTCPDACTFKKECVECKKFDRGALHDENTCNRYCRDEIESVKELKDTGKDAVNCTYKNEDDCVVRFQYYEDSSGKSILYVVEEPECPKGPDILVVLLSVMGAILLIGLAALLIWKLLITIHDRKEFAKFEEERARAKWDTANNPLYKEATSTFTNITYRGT
- Sequence (P06756 31-889 limits assumed): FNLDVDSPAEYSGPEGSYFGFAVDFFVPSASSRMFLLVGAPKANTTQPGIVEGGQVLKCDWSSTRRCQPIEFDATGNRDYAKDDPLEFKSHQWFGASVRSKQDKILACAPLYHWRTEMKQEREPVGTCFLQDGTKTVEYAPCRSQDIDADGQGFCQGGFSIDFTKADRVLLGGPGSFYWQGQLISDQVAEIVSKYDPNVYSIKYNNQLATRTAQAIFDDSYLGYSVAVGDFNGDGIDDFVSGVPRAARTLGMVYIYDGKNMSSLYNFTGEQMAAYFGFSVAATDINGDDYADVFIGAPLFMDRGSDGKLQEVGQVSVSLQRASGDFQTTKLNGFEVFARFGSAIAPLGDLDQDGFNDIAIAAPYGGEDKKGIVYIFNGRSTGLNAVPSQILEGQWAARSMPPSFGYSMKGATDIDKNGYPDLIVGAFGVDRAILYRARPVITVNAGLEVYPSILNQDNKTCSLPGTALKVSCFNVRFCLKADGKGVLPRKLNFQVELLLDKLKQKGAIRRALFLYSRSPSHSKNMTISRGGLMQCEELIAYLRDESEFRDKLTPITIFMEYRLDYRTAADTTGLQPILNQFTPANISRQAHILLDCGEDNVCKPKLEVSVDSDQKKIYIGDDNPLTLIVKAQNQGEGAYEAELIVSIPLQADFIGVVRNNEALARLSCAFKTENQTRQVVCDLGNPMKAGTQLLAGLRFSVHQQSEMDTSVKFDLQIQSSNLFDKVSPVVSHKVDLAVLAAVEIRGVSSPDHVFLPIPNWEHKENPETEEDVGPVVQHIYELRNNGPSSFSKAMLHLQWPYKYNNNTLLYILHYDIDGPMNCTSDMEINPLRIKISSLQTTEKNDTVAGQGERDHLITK
- Sequence (P06756 891-1048 limits assumed): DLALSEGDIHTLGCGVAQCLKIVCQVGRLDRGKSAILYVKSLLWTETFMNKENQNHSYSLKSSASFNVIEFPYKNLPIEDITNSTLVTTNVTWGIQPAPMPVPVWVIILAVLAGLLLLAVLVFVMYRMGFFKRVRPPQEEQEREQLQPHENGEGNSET
- experimental details: Displacement of [125I]echistatin from purified human alphaVbeta3 receptor after 3 hrs by gamma counting
- Type: protein-complex assay

[
  {
    "molecular string": "N=C(N)NCCNC(=O)[C@H](CCCCNC(=O)OCc1ccccc1)N1CC[C@H](CCC(=O)O)C1=O",
    "IC50": "> 100 µM"
  },
  {
    "molecular string": "N=C(N)NCCC[C@@H]1CCN([C@@H](CCCCN)C(=O)NCCC(=O)O)C1=O",
    "IC50": "50 µM"
  },
  {
    "molecular string": "N=C(N)NCCC[C@@H]1CCN([C@@H](CCCCNC(=O)OCc2ccccc2)C(=O)NCCC(=O)O)C1=O",
    "IC50": "100 µM"
  }
]
